Entries and their measured k (retention factor) follow.
# test summary: lipophilicity by isocratic RP-HPLC (log k, k, log kw, S)
# Format: physicochemical
# measurement parameters: mobile phase MeOH/water 95:5 (v/v)
# Description: Octadecyl-functionalized silica gel was currently used as a stationary phase (SPh) and a […] of two solvents at different volume ratios modified retention properties of the SPh. […] The MeOH modifier was preferred because of similarity of both observed and extrapolated lipophilicity parameters with the ones determined in the octan-1-ol/water partition system, considering also sensitivity to H-bond donor properties of investigated compounds [41]. […]

compound: CCCCOc1cccc(NC(=O)OC(CN(CCC)CCC)CN2CCCCCC2)c1 (stereo not shown)
k (retention factor): 1.1026

compound: CCCCCOc1ccccc1NC(=O)OC(CN(CCC)CCC)CN1CCCCCC1.O=C(O)C(=O)O (stereo not shown)
k (retention factor): 2.8242

compound: CCCCCCOc1ccccc1NC(=O)OC(CN(CCC)CCC)CN1CCCCCC1 (stereo not shown)
k (retention factor): 3.3274

compound: CCCCCCCOc1cccc(NC(=O)OC(CN(CCC)CCC)CN2CCCC2)c1.Cl.Cl (stereo not shown)
k (retention factor): 1.6188

compound: CCCCCOc1cccc(NC(=O)OC(CN(CCC)CCC)CN2CCCC2)c1.Cl.Cl (stereo not shown)
k (retention factor): 0.8052

compound: CCCCCOc1ccccc1NC(=O)OC(CN(CCC)CCC)CN1CCCC1 (stereo not shown)
k (retention factor): 1.9235

compound: CCCCOc1ccccc1NC(=O)OC(CN(CCC)CCC)CN1CCCC1 (stereo not shown)
k (retention factor): 1.5878

compound: CCCCOc1ccccc1NC(=O)OC(CN(CCC)CCC)CN1CCCCCC1 (stereo not shown)
k (retention factor): 2.4854

compound: CCCCCCCOc1ccccc1NC(=O)OC(CN(CCC)CCC)CN1CCCC1.Cl.Cl (stereo not shown)
k (retention factor): 2.5421

compound: CCCCCCCOc1cccc(NC(=O)OC(CN(CCC)CCC)CN2CCCCCC2)c1.Cl.Cl (stereo not shown)
k (retention factor): 1.6036

compound: CCCCCCCOc1cccc(NC(=O)OC(CN(CCC)CCC)CN2CCCCCC2)c1.O=C(O)C(=O)O (stereo not shown)
k (retention factor): 4.2374

compound: CCCCOc1cccc(NC(=O)OC(CN(CCC)CCC)CN2CCCC2)c1 (stereo not shown)
k (retention factor): 0.7155

compound: CCCCCCOc1ccccc1NC(=O)OC(CN(CCC)CCC)CN1CCCC1 (stereo not shown)
k (retention factor): 2.3351

compound: CCCCCCOc1cccc(NC(=O)OC(CN(CCC)CCC)CN2CCCCCC2)c1.Cl.Cl (stereo not shown)
k (retention factor): 1.2868

compound: CCCCCCOc1cccc(NC(=O)OC(CN(CCC)CCC)CN2CCCC2)c1 (stereo not shown)
k (retention factor): 1.3128

compound: CCCCCOc1cccc(NC(=O)OC(CN(CCC)CCC)CN2CCCCCC2)c1.Cl.Cl (stereo not shown)
k (retention factor): 1.2419

// data source = paper PMC6222509
